Study target: hmGlu5 (Homo sapiens, UniProt P41594)
Construct: expressed in transfected cells; host or cells: HEK 293A
Sequence (P41594 21-1212): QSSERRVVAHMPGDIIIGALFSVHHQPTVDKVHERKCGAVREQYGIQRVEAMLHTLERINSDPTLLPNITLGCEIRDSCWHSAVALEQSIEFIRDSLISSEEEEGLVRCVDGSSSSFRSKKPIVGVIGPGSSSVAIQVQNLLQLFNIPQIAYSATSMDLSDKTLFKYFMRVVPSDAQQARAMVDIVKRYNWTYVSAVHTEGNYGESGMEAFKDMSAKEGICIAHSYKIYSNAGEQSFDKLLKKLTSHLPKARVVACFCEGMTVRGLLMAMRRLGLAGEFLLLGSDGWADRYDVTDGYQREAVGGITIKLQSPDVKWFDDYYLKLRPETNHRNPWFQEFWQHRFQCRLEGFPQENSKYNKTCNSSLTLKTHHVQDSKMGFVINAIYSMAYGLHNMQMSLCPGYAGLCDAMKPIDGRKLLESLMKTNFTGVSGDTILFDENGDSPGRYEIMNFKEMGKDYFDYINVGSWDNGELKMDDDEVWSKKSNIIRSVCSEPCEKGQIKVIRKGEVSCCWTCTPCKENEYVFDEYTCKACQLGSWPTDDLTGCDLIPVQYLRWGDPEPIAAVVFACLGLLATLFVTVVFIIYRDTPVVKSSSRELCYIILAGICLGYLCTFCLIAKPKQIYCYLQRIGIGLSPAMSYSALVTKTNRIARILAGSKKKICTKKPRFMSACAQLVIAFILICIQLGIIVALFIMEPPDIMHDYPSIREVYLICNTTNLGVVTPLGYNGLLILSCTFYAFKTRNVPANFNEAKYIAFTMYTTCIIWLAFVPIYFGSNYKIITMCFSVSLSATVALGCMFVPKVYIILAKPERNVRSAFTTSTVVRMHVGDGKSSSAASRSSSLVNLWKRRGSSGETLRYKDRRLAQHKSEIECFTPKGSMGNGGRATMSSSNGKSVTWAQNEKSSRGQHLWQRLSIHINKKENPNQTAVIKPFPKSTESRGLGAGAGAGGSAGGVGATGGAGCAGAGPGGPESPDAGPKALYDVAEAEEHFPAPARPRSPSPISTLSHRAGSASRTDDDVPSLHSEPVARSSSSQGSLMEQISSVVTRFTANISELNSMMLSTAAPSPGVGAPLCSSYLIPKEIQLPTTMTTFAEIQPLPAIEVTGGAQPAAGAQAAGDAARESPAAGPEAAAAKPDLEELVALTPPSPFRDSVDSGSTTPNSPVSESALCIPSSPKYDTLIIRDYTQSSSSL
Assay details: mGlu5 Ca2+ flux assay in HEK 293A cells (negative allosteric modulation of glutamate EC80 response)
Type: cell-based
Condition summary: HEK 293A cells, Ca2+ flux, glutamate EC80; >10,000 = decrease without plateau; read-out: hmGlu5 NAM IC50
Entries annotated with measured IC50

In [3]: df
Out[3]:
                              sample_smiles  value_reported
0  Cc1nc(-c2noc(-c3ccc(F)cn3)n2)cc(-c2cncc(C(C)(C)O)c2)c1F         1290 nM
1  Cc1cc(F)nc(-c2cc(-c3noc(-c4ccc(F)cn4)n3)nc(C)c2F)c1         1890 nM
2  [2H]C([2H])([2H])c1cc(-c2cncc(F)c2)cc(-c2nnc(-c3ccc(F)cn3)o2)n1          450 nM
3  Cc1nc(-c2nc(-c3cscn3)no2)cc(-c2cncc(F)c2)c1F          481 nM

GET IC50 | system: hmGlu5 (Homo sapiens, UniProt P41594) | item: COc1cncc(-c2cc(-c3noc(-c4ccc(F)cn4)n3)nc(C)c2F)c1
493 nM

GET IC50 | system: hmGlu5 (Homo sapiens, UniProt P41594) | item: Cc1nc(-c2noc(C3CCOCC3)n2)cc(-c2cncc(F)c2)c1F
> 10000 nM

GET IC50 | system: hmGlu5 (Homo sapiens, UniProt P41594) | item: Cc1nc(-c2nnc(-c3ccc(F)cn3)o2)cc(-c2cncc(F)c2)c1F
179 nM

---

Entries annotated with measured IC50
Study target: hmGlu5 (Homo sapiens)
Construct: expressed in transfected cells; host or cells: HEK 293A
Assay details: mGlu5 Ca2+ flux assay in HEK 293A cells (negative allosteric modulation of glutamate EC80 response)
Assay type: cell-based
Condition summary: HEK 293A cells, Ca2+ flux, glutamate EC80; >10,000 = decrease without plateau; read-out: hmGlu5 NAM IC50

                                   compound  value_reported
0  Cc1csc(-c2noc(-c3cc(-c4cnccc4C)c(F)c(C)n3)n2)n1 [Compound 105]         > 10 µM
1  Cc1cc(CC2CCOCC2)cc(-c2noc(-c3ccc(F)cn3)n2)n1 [Compound 71]         > 10 µM

Determine its reported IC50: Cc1ccc(-c2nc(-c3cc(-c4cnccc4C)c(F)c(C)n3)no2)nc1 [Compound 64]
> 10 µM

---

Study target: hmGlu5 (Homo sapiens)
Construct: expressed in transfected cells; host or cells: HEK 293A
Assay details: mGlu5 Ca2+ flux assay in HEK 293A cells (negative allosteric modulation of glutamate EC80 response)
Type: cell-based
Condition summary: HEK 293A cells, Ca2+ flux, glutamate EC80; >10,000 = decrease without plateau; read-out: hmGlu5 NAM IC50
Method: HEK 293A cells stably expressing either rat or human mGlu5 were plated in black-walled, clear-bottomed, poly-D-lysine coated 384-well plates in 20 μL of assay medium (DMEM containing 10% dialyzed FBS, 20 mM HEPES, 100 units/mL penicillin/streptomycin plus 250 ng/mL Fungizone, and 1 mM sodium pyruvate) at a density of 20K cells/well. The cells were grown overnight at 37° C. in the presence of 5% CO2. […] Ca^2+ flux was measured using the Functional Drug Screening System (FDSS7000, Hamamatsu, Japan). […]
Classes are defined on IC50 with ranges low (below 200 nM), middle (200 nM to below 900 nM), high (900 nM or more)

Here's what some known entries look like.
>>> print(df.to_string())
                                   compound  category
0  Cc1ccc(-c2cc(-c3nnc(-c4ccc(F)cn4)o3)nc(C)c2F)c(C)n1 [Compound 111]      high
1  Cc1ccncc1-c1cc(-c2nc(-c3cccc(F)c3)c[nH]2)nc(C)c1F [Compound 63]      high

Let us examine a further case.
// return the class label for Cc1nc(-c2noc(-c3cscn3)n2)cc(-c2cncc(F)c2)c1F [Compound 52]
high
